IC50 listing for selected substances.
# System: human Factor 11 mRNA
# ASSAY PROCEDURE: Dose-dependent inhibition of human Factor 11 in HepG2 cells, electroporation 123.46-10,000 nM (Example 31)
# Type: cell-based
# CONDITIONS: electroporation, Factor 11 mRNA expression
Strand notation (5' to 3'): a small letter for the sugar, then the base; units joined by * are phosphorothioate-linked, units joined directly phosphodiester-linked; [ ] holds rarer units or linkages, { } end groups; capitals alone tell only the bases. e = 2'-O-(2-methoxyethyl) (MOE); [5mC] = 5-methylcytosine; d = 2'-deoxy (DNA)
A number alone suffices; assume nM.

1) 445532 (antisense e[5mC]*eG*eG*e[5mC]*eA*dT*dT*dG*dG*dT*dG*d[5mC]*dA*e[5mC]*eA*eG*eT*eT) [compound 445532]	2000
2) 445522 (antisense eG*e[5mC]*eA*e[5mC]*eA*dG*dT*dT*dT*d[5mC]*dT*dG*dG*e[5mC]*eA*eG*eG*e[5mC]) [compound 445522]	2900

Now let's try a different one.
Param item = 445531 (antisense eG*eG*e[5mC]*eA*eT*dT*dG*dG*dT*dG*d[5mC]*dA*d[5mC]*eA*eG*eT*eT*eT) [compound 445531] ; retrieve measured IC50.
1800

====

# ASSAY PROCEDURE: Liver function, ALT, AST, bilirubin in cynomolgus monkeys (Example 46)
# Type: in vivo
# CONDITIONS: Day −14; plasma
Strand notation (5' to 3'): a small letter for the sugar, then the base; units joined by * are phosphorothioate-linked, units joined directly phosphodiester-linked; [ ] holds rarer units or linkages, { } end groups; capitals alone tell only the bases. e = 2'-O-(2-methoxyethyl) (MOE); [5mC] = 5-methylcytosine; d = 2'-deoxy (DNA)
ALT strictly less than 50 IU/L = Criterion met. Otherwise Criterion not met.

Recorded results for 5 substances are shown here.
1. ISIS 449707: 3-8-3, 4-8-4, 2-10-2, 3-10-3 or 4-10-4 MOE microwalk gapmer (Table 46) (antisense e[5mC]*eA*e[5mC]*eA*dG*dT*dT*dT*d[5mC]*dT*dG*dG*e[5mC]*eA*eG*eG)	Criterion not met
2. ISIS 449708: 3-8-3, 4-8-4, 2-10-2, 3-10-3 or 4-10-4 MOE microwalk gapmer (Table 46) (antisense eA*e[5mC]*eA*dG*dT*dT*dT*d[5mC]*dT*dG*dG*e[5mC]*eA*eG)	Criterion met
3. ISIS 416850: MOE gapmer, nucleobases 1275 to 1318 of SEQ ID NO: 1 (Table 8) (antisense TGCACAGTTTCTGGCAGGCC; MOE gapmer, wing and gap sizes not given here)	Criterion met
4. ISIS 445522: 5-8-5 or 6-8-6 MOE microwalk gapmer (Table 44) (antisense eG*e[5mC]*eA*e[5mC]*eA*dG*dT*dT*dT*d[5mC]*dT*dG*dG*e[5mC]*eA*eG*eG*e[5mC])	Criterion met
5. ISIS 416858: MOE gapmer, nucleobases 1275 to 1318 of SEQ ID NO: 1 (Table 8) (antisense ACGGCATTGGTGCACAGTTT; MOE gapmer, wing and gap sizes not given here)	Criterion met

Answer whether the substance ISIS 449710: 3-8-3, 4-8-4, 2-10-2, 3-10-3 or 4-10-4 MOE microwalk gapmer (Table 46) (antisense e[5mC]*eA*e[5mC]*dA*dG*dT*dT*dT*d[5mC]*dT*dG*dG*d[5mC]*eA*eG*eG) has ALT strictly less than 50 IU/L
Criterion met

Next entry: ISIS 445531: 5-8-5 or 6-8-6 MOE microwalk gapmer (Table 44) (antisense eG*eG*e[5mC]*eA*eT*dT*dG*dG*dT*dG*d[5mC]*dA*d[5mC]*eA*eG*eT*eT*eT)
Criterion not met

Also ISIS 449709: 3-8-3, 4-8-4, 2-10-2, 3-10-3 or 4-10-4 MOE microwalk gapmer (Table 46) (antisense eG*e[5mC]*eA*e[5mC]*dA*dG*dT*dT*dT*d[5mC]*dT*dG*dG*d[5mC]*eA*eG*eG*e[5mC]) ?
Criterion not met

====

# ASSAY PROCEDURE: Hematology assays in cynomolgus monkeys (Example 46)
# Assay type: in vivo
# CONDITIONS: Day 31
Strand notation (5' to 3'): a small letter for the sugar, then the base; units joined by * are phosphorothioate-linked, units joined directly phosphodiester-linked; [ ] holds rarer units or linkages, { } end groups; capitals alone tell only the bases. e = 2'-O-(2-methoxyethyl) (MOE); [5mC] = 5-methylcytosine; d = 2'-deoxy (DNA)
Listed here: items and their measured MCH.
Hi! Could you send only the number? It should be in pg, unit omitted.

1. ISIS 445531: 5-8-5 or 6-8-6 MOE microwalk gapmer (Table 44) (antisense eG*eG*e[5mC]*eA*eT*dT*dG*dG*dT*dG*d[5mC]*dA*d[5mC]*eA*eG*eT*eT*eT)	22.0
2. ISIS 445522: 5-8-5 or 6-8-6 MOE microwalk gapmer (Table 44) (antisense eG*e[5mC]*eA*e[5mC]*eA*dG*dT*dT*dT*d[5mC]*dT*dG*dG*e[5mC]*eA*eG*eG*e[5mC])	22.4
3. ISIS 416850: MOE gapmer, nucleobases 1275 to 1318 of SEQ ID NO: 1 (Table 8) (antisense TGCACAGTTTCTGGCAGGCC; MOE gapmer, wing and gap sizes not given here)	23.3

// below: MCH requested for another substance
Value lookup for MCH; key = ISIS 449709: 3-8-3, 4-8-4, 2-10-2, 3-10-3 or 4-10-4 MOE microwalk gapmer (Table 46) (antisense eG*e[5mC]*eA*e[5mC]*dA*dG*dT*dT*dT*d[5mC]*dT*dG*dG*d[5mC]*eA*eG*eG*e[5mC])
22.2

====

Listed substances paired with reported WBC count
# ASSAY PROCEDURE: Hematology assays in cynomolgus monkeys (Example 45)
# Format: in vivo
# CONDITIONS: day 22; escalating dose regimen
Unit µL⁻¹ implied. Number only.

1) ISIS 416858: MOE gapmer, nucleobases 1275 to 1318 of SEQ ID NO: 1 (Table 8) (antisense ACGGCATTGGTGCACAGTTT; MOE gapmer, wing and gap sizes not given here)	11000

Quick one: WBC count of ISIS 417002: MOE gapmer, nucleobases 1275 to 1318 of SEQ ID NO: 1 (Table 8) (antisense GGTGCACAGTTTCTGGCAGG; MOE gapmer, wing and gap sizes not given here) ?
10000

====

# ASSAY PROCEDURE: Hematology assays in cynomolgus monkeys (Example 46)
# Type: in vivo
# CONDITIONS: Day 45
Strand notation (5' to 3'): a small letter for the sugar, then the base; units joined by * are phosphorothioate-linked, units joined directly phosphodiester-linked; [ ] holds rarer units or linkages, { } end groups; capitals alone tell only the bases. e = 2'-O-(2-methoxyethyl) (MOE); [5mC] = 5-methylcytosine; d = 2'-deoxy (DNA)
RECORDED METRIC: HCT (%)
Reply numerically in %, unit not repeated.

1) ISIS 416858: MOE gapmer, nucleobases 1275 to 1318 of SEQ ID NO: 1 (Table 8) (antisense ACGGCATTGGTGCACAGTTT; MOE gapmer, wing and gap sizes not given here)	41

Looking for the measured HCT of ISIS 449710: 3-8-3, 4-8-4, 2-10-2, 3-10-3 or 4-10-4 MOE microwalk gapmer (Table 46) (antisense e[5mC]*eA*e[5mC]*dA*dG*dT*dT*dT*d[5mC]*dT*dG*dG*d[5mC]*eA*eG*eG) , can you help?
43

Another substance to look at: ISIS 445531: 5-8-5 or 6-8-6 MOE microwalk gapmer (Table 44) (antisense eG*eG*e[5mC]*eA*eT*dT*dG*dG*dT*dG*d[5mC]*dA*d[5mC]*eA*eG*eT*eT*eT)
41

For ISIS 449708: 3-8-3, 4-8-4, 2-10-2, 3-10-3 or 4-10-4 MOE microwalk gapmer (Table 46) (antisense eA*e[5mC]*eA*dG*dT*dT*dT*d[5mC]*dT*dG*dG*e[5mC]*eA*eG) then?
44

Cool, now ISIS 445522: 5-8-5 or 6-8-6 MOE microwalk gapmer (Table 44) (antisense eG*e[5mC]*eA*e[5mC]*eA*dG*dT*dT*dT*d[5mC]*dT*dG*dG*e[5mC]*eA*eG*eG*e[5mC])
41

Item: ISIS 416850: MOE gapmer, nucleobases 1275 to 1318 of SEQ ID NO: 1 (Table 8) (antisense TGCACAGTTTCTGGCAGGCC; MOE gapmer, wing and gap sizes not given here)
42

Same question for ISIS 449711: 3-8-3, 4-8-4, 2-10-2, 3-10-3 or 4-10-4 MOE microwalk gapmer (Table 46) (antisense eA*e[5mC]*dA*dG*dT*dT*dT*d[5mC]*dT*dG*dG*d[5mC]*eA*eG) please.
39

What do you get for ISIS 449707: 3-8-3, 4-8-4, 2-10-2, 3-10-3 or 4-10-4 MOE microwalk gapmer (Table 46) (antisense e[5mC]*eA*e[5mC]*eA*dG*dT*dT*dT*d[5mC]*dT*dG*dG*e[5mC]*eA*eG*eG) ?
43

Moving on to ISIS 449709: 3-8-3, 4-8-4, 2-10-2, 3-10-3 or 4-10-4 MOE microwalk gapmer (Table 46) (antisense eG*e[5mC]*eA*e[5mC]*dA*dG*dT*dT*dT*d[5mC]*dT*dG*dG*d[5mC]*eA*eG*eG*e[5mC])
41

Every entry's value here was drawn from patent US20230263822A1.
